System: Staphylococcus sp.
Test: ART strip test on urine sample pellets
Format: cell-based
Conditions: 1 sample (r31)
QUANTITY MEASURED: resistance profile predicted by ART

                        structure_as_smiles  result_value
0  CO/N=C(\C(=O)N[C@@H]1C(=O)N2C(C(=O)O)=C(COC(N)=O)CS[C@H]12)c1ccco1             S
1  CC1(C)S[C@@H]2[C@H](NC(=O)[C@H](N)c3ccccc3)C(=O)N2[C@H]1C(=O)O             R
2  CC(C)(O/N=C(\C(=O)N[C@@H]1C(=O)N2C(C(=O)[O-])=C(C[n+]3ccccc3)CS[C@H]12)c1csc(N)n1)C(=O)O             S
3  CO/N=C(\C(=O)N[C@@H]1C(=O)N2C(C(=O)O)=C(CSc3nc(=O)c(=O)[nH]n3C)CS[C@H]12)c1csc(N)n1             S
